test_description: Ex vivo biodistribution in PC-3 tumor-bearing mice
condition_set: mouse, bone, Uptake in bone, 1 h post-injection
assay_readout: tissue uptake at 1 h (%ID/g)
Answers are plain numbers, in %ID/g.

Query :: Can you look up the measured tissue uptake at 1 h of CC(C)C[C@@H](CN1CSC[C@H]1C(N)=O)NC(=O)[C@H](Cc1cnc[nH]1)NC(=O)CN(C)C(=O)[C@@H](NC(=O)[C@H](C)NC(=O)[C@H](Cc1c[nH]c2ccccc12)NC(=O)[C@H](CCC(N)=O)NC(=O)[C@@H](Cc1ccccc1)NC(=O)CN1CCC(NC(=O)CN2CCN(CC(=O)O)CCN(CC(=O)O)CCN(CC(=O)O)CC2)CC1)C(C)C [[^177Lu]Lu-TacsBOMB5, metal not drawn] for me?
Result :: 0.12
